Experiment: NCI Yeast Anticancer Drug Screen. Data for the cln2 rad14 strain (AID 165);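 note: 0% = growth equal to vehicle treated cultures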
Details: S. cerevisiae cln2 rad14 strain, at 50.0 µM, stronger effect = higher value
This is part of a sample that, as a whole, favours compounds with a hit. Of some 79,000 tested, about 15% had one in any assay.
ASSAY ENDPOINT: growth inhibition (%)
Numbers only, in %.

// worked examples, growth inhibition included
• CCO/C=C1\SC(=S)N(CCc2ccc(OC)c(OC)c2)C1=O = -2.2
• Cc1[nH]c2ccc([N+](=O)[O-])cc2c1C = 26.4
• CCN(CC)c1ccc2cc(-c3nc4ccccc4[nH]3)c(=O)oc2c1 = 3.15
• COc1cc(/C=C/C(=O)O)cc(OC)c1OC = 6.1
• COC(=O)CC1(C(=O)OC)OC(=O)c2ccccc2N1C (stereo unspecified) = -24.6

Let us move to another entry and its growth inhibition.
Any idea what its growth inhibition is? The compound is COc1cccc(OC)c1NC(=O)NCCCl
50.8

###

Assay: NCI Yeast Anticancer Drug Screen. Data for the cln2 rad14 strain (AID 165);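 note: 0% = growth equal to vehicle treated cultures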
Details: S. cerevisiae cln2 rad14 strain, at 50.0 µM, stronger effect = higher value
This is part of a sample that, as a whole, favours compounds with a hit. Of some 79,000 tested, about 15% had one in any assay.
ASSAY ENDPOINT: growth inhibition (%)
One number for each entry, in %.

Example results:
• O=C1c2cc(Cl)ccc2OCC1Cl (configuration not stated) = -25.6
• CC1=C(C(=O)NCc2ccccc2)C(c2cccc([N+](=O)[O-])c2)C(C(=O)NCc2ccccc2)=C(C)N1 = 22.7
• Cn1c(=O)c2c(nc(C(c3ccccc3)c3ccccc3)n2C)n(C)c1=O = -33.5
• CCOC(=O)Oc1ccc(Cl)cc1Cl = 5.2
• C[S+](C)CC(=O)c1ccccc1O = -62.4
• O=C(CC(O)(C(F)(F)Cl)C(F)(F)Cl)c1cccc([N+](=O)[O-])c1 = 72.5
• Cc1cc2c(=O)cc(-c3ccncc3)oc2c(C(N)=O)c1C = -1
• COC1=NC(NC2OCC(O)C(O)C2O)=C(NC(C)=O)CN1C (configuration not stated) = -3.65

Please give growth inhibition for each item listed below.
1. CC12CCC(=O)[C@@]1(C)CCCC2=O (some centres not stated)
2. CC(O)CNc1ncnc2ccccc12 (configuration not stated)
3. CC1=NN(C(=O)c2ccncc2)C(=O)C1N=Nc1ccc(F)cc1 (configuration not stated)
4. CCOC(=O)/C=C\n1c(=O)cc(C)c2ccccc21

1: 6.8; 2: -5.1; 3: -5.2; 4: 18.4

###

Assay: NCI Yeast Anticancer Drug Screen. Data for the rad50 strain (AID 155);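 note: 0% = growth of vehicle-only cultures of the same strain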
Conditions: S. cerevisiae rad50 strain growth inhibition; at 50.0 µM; stronger effect = higher value
Compounds without any hit were thinned out: in the full panel of roughly 79,000, 15% have a hit.
Answer each item with its documented growth inhibition.
Numbers only, in %.

- O=C1c2ccccc2C2CC1c1ccccc12 (stereo unspecified): 6.35
- O=S(=O)(Nc1ccn(-c2ccccc2)n1)c1ccc(NCc2c3ccccc3nc3cc(Cl)ccc23)cc1: 17.1
- CCCCc1c(O)c2c(=O)[nH]c(C)nc2oc1=O: -9.8

List reported growth inhibition for each of these compounds:
1. Cc1ccccc1C(N)=O
2. Nc1nc2c3nc(Nc4ccccc4)sc3nc(=O)n2c2sc(Nc3ccccc3)nc12

23.7
1.85

###

Assay: NCI Yeast Anticancer Drug Screen. Data for the mec2-1 strain (AID 157)
Conditions: S. cerevisiae mec2-1 strain, at 50.0 µM, stronger effect = higher value
This is part of a sample that, as a whole, favours compounds with a hit. Of some 79,000 tested, about 15% had one in any assay.
ASSAY ENDPOINT: growth inhibition (%)
Numbers only, in %.

For orientation, consider the following solved cases.
- NNC(=O)CNc1cccc(Br)c1: -24.6
- O=c1oc(=O)c2c1ccc1c2cc2ccc3cccc4ccc1c2c34: -10.4
- Cc1nn(C(=O)CC(=O)Nc2ccccc2Cl)c(C)c1N=Nc1ccccc1F: 4
- COc1ccc2c(c1)[n+]([O-])c(/C(C)=N/NC(=O)c1ccccc1O)c(C)[n+]2[O-]: -3.9
- Cc1cc2cc3c(C)cc(=O)oc3c(C)c2o1: -37.1

Each compound below has a recorded value; state its growth inhibition.
1. O=C(O)c1cc(C(=O)O)nc(C(=O)O)c1
2. COc1nc2c(nc(N)n2C2OC(CO)C(O)C(O)C2O)c(=O)[nH]1 (stereo not drawn)
3. O=C1CC[C@@H](S(=O)(=O)c2ccccc2)[C@@H](/C=C/c2ccccc2)O1
4. CC1=CC(C)(C)NC(=S)N1CCO
5. CCOC(=O)CC/C(=N/Nc1ccc(Cl)cc1[N+](=O)[O-])C(=O)OCC
6. Cc1nc(N)sc1C(=O)/C=C\c1ccc2c(c1)OCO2
7. CCCCCCCCCCCCCCOc1ccc(OCCCCCCCCC)cc1
8. CC1=C(c2cc(C(=O)Nc3cccc(Cl)c3)nc(NC#N)n2)Sc2ccccc2N1

1. -12.1
2. -8
3. -1.75
4. -18.6
5. -39.9
6. -3.2
7. -14.9
8. 0.9

Return reported growth inhibition values for all items listed beneath this line.
1. CC(=O)C1CC2CCC1C2 (stereo not drawn)
2. Cc1cccc(NC(=O)c2c(Cl)c(Cl)c(Cl)c(Cl)c2C(=O)O)c1C
3. Oc1ccc(Cl)cc1CN1CCOCC1
4. Cc1cc2nc3c(=O)[nH]c(=O)nc-3n(CCOC(=O)CCC(=O)O)c2cc1C

1: 12.8; 2: 2; 3: 11.6; 4: 9.45

###

For each entry below, report its growth inhibition value.
Test: NCI Yeast Anticancer Drug Screen. Data for the bub3 strain (AID 167)
Settings: S. cerevisiae bub3 mutant strain, at 50.0 µM, stronger effect = higher value
This is part of a sample that, as a whole, favours compounds with a hit. Of some 79,000 tested, about 15% had one in any assay.
One number for each entry, in %.

* CC(C)=C(CSC#N)S(=O)(=O)c1ccc(C)cc1 | 36.9
* Clc1ccc(CSc2nnc(SCc3ccc(Cl)c(Cl)c3)c3[nH]cnc23)cc1Cl | 22.9
* CCOC(=O)C(NC(=O)NCc1ccc(F)cc1)C(F)(F)F (stereo unspecified) | 51.9

Need growth inhibition for each of these molecules.
1. CC(=O)OCCn1c(=O)sc2ccccc21
2. CCCCC(CC)COCCC(=O)O (stereo unspecified)
3. COc1ccc(/C(=N\O)C(c2ccc(OC)cc2)C(Cl)(Cl)Cl)cc1 (stereo unspecified)
4. C(=N\N1CCN(/N=C/c2cccc3ccccc23)CC1)/c1cccc2ccccc12

1: -10.7; 2: -19.8; 3: 16.6; 4: -0.65

###

Assay: NCI Yeast Anticancer Drug Screen. Data for the sgs1 mgt1 strain (AID 161);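 note: 0% = growth of cultures given vehicle only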
Details: S. cerevisiae sgs1 mgt1 strain, at 50.0 µM, stronger effect = higher value
Experimental: Growth inhibition of yeast strains with defined genetic alterations is measured as a screen for potential anti-cancer activity. Selected strains with alterations in DNA damage repair or cell cycle control were exposed to compounds and growth inhibition was measured relative to vehicle treated controls. The strain used in this assay is sgs1 mgt1
The panel holds about 79,000 compounds, 15% with a hit somewhere; the sample as a whole holds those more often.
ASSAY ENDPOINT: growth inhibition (%)
Answers are plain numbers, in %.

Examples with answers:
- CCCOC1NC(=O)Oc2ccccc21 (stereo not given): -0.9
- O=C(OC1COC(n2c(=O)oc3cc([N+](=O)[O-])c([N+](=O)[O-])cc32)C(OC(=O)c2ccccc2)C1OC(=O)c1ccccc1)c1ccccc1 (stereo not given): 14.4
- C(=C\C(Sc1ccccc1)c1ccccc1)/NNC1=NC(c2ccccc2)C(c2ccccc2)=NN1 (stereo not given): -42.8
- CCCOC(=O)Nc1cccc(C)c1: -15.7

Could you now look at the following compound, please?
Dear colleague, I am looking for the recorded growth inhibition of the following compound: O=C(O)c1ccccc1/C=N\NC1=NCCCCN1
-31.4

###

Assay: NCI Yeast Anticancer Drug Screen. Data for the mlh1 rad18 strain (AID 175)
Conditions: S. cerevisiae mlh1 rad18 strain growth inhibition; at 50.0 µM; stronger effect = higher value
About 79,000 compounds went through this panel and 15% of them were active in at least one assay; those are over-represented in the sample as a whole. Activity calls are given as the source filed them. No stated cut-off is given here; in the data, active means growth inhibition above about 70%; inactive means the rest.
Please go through the items and note down their growth inhibition.

Completed entries (count: 5):
* O=C(O)c1c(Cl)c(Cl)c(Cl)c(Cl)c1C(=O)Nc1cccc(C(F)(F)F)c1 | -14.7% (inactive)
* CCc1ccc(NC(=O)c2cc(OC)c(OC)c(OC)c2)cc1 | 29.2% (inactive)
* N/N=C1\C(=O)N(Cc2ccccc2)C(=O)C1C(=O)NCc1ccccc1 (stereo unspecified) | 3.5% (inactive)
* CSc1ccc2c(=O)c(C(=O)O)c[nH]c2c1 | 5.85% (inactive)
* FC1(F)SC2c3ccccc3CC2C1(F)F (stereo unspecified) | 9.95% (inactive)

# growth inhibition lookup, item Nc1nc(-c2ccncc2)cc(-c2cc(-c3ccncc3)nc(N)n2)n1
10.3% (inactive)

Data origin, for the record: PubChem BioAssay (NCI)
